# target_of_assay: recombinant soluble homotrimeric HA of A/chicken/Vietnam/NCVD-016/08 (H5N1) (Influenza A virus A/chicken/Vietnam/NCVD-016/2008 (H5N1))
# test_description: HA microarray, BCC supernatant
# applied_conditions: remark: other sources report otherwise
test_readout: Trimeric HA Binding RLU (RLU)

>  <binder>
TCN-529 (5297_H01) (antibody, V domains shown) VH: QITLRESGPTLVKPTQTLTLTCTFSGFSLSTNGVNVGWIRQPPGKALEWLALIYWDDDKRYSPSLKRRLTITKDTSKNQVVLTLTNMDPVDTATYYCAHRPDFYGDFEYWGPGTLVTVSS VL: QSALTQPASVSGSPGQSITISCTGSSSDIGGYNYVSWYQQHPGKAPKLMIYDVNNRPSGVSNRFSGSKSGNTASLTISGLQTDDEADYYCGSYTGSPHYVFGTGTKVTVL

>  <result_value>
410

$$$$
>  <binder>
TCN-555 (5246_L16) (antibody, V domains shown) VH: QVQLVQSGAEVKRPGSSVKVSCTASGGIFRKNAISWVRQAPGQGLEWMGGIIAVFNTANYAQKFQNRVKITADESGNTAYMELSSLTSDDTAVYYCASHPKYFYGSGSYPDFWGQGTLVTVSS VL: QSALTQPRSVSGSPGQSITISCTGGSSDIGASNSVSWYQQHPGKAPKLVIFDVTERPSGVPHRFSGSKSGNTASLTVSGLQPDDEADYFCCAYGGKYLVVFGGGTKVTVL

>  <result_value>
22300

$$$$
>  <binder>
TCN-550 (5096_F06) (antibody, V domains shown) VH: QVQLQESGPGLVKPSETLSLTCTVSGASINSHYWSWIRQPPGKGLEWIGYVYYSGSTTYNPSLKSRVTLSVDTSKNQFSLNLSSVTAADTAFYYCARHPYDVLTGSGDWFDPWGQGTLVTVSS VL: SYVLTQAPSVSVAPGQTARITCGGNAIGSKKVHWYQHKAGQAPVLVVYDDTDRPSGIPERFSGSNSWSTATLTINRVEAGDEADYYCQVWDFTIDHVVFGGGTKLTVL

>  <result_value>
361

$$$$
